conditions: dose not stated; tested at MTD
Parameter: toxicity

>>> print(df.to_string())
              compound_string  parameter       result
0      CC1=CC(=O)c2ccccc2C1=O   toxicity  quite toxic
1  CC1=C(C)C(=O)C(C)=C(C)C1=O   toxicity  quite toxic
